Where do these numbers come from? They come from patent US12398132B2.

We begin with a simple list: items and their reported activity.
# experimental system: CDK2E1 (Homo sapiens)
# test conditions: 1 µM
Field format: number, assumed %, no unit text.

CC(=O)N1CCN(c2ccc(Nc3ncc(F)c(-c4cnc5ccccn45)n3)nc2)CC1; 47
CC(=O)N1CCN(c2ccc(Nc3nccc(-c4cnc5ccc(Br)cn45)n3)nc2)CC1; 58
CC(=O)N1CCN(c2ccc(Nc3nccc(-c4cnc5ccc(-c6cn(S(=O)(=O)c7ccccc7)c7ccccc67)cn45)n3)nc2)CC1; 75

IN: Supply reported activity belonging to this compound: "CC(=O)N1CCN(c2ccc(Nc3nccc(-c4cnc5ccc(-c6cnc(N7CCN(C)CC7)nc6)cn45)n3)nc2)CC1"
OUT: 83
